# reported inhibition; entries follow
- experimentalSystem: Sodium channel protein type 2 subunit alpha (Homo sapiens) (UniProt Q99250)
- Sequence (Q99250 whole entry, looked up): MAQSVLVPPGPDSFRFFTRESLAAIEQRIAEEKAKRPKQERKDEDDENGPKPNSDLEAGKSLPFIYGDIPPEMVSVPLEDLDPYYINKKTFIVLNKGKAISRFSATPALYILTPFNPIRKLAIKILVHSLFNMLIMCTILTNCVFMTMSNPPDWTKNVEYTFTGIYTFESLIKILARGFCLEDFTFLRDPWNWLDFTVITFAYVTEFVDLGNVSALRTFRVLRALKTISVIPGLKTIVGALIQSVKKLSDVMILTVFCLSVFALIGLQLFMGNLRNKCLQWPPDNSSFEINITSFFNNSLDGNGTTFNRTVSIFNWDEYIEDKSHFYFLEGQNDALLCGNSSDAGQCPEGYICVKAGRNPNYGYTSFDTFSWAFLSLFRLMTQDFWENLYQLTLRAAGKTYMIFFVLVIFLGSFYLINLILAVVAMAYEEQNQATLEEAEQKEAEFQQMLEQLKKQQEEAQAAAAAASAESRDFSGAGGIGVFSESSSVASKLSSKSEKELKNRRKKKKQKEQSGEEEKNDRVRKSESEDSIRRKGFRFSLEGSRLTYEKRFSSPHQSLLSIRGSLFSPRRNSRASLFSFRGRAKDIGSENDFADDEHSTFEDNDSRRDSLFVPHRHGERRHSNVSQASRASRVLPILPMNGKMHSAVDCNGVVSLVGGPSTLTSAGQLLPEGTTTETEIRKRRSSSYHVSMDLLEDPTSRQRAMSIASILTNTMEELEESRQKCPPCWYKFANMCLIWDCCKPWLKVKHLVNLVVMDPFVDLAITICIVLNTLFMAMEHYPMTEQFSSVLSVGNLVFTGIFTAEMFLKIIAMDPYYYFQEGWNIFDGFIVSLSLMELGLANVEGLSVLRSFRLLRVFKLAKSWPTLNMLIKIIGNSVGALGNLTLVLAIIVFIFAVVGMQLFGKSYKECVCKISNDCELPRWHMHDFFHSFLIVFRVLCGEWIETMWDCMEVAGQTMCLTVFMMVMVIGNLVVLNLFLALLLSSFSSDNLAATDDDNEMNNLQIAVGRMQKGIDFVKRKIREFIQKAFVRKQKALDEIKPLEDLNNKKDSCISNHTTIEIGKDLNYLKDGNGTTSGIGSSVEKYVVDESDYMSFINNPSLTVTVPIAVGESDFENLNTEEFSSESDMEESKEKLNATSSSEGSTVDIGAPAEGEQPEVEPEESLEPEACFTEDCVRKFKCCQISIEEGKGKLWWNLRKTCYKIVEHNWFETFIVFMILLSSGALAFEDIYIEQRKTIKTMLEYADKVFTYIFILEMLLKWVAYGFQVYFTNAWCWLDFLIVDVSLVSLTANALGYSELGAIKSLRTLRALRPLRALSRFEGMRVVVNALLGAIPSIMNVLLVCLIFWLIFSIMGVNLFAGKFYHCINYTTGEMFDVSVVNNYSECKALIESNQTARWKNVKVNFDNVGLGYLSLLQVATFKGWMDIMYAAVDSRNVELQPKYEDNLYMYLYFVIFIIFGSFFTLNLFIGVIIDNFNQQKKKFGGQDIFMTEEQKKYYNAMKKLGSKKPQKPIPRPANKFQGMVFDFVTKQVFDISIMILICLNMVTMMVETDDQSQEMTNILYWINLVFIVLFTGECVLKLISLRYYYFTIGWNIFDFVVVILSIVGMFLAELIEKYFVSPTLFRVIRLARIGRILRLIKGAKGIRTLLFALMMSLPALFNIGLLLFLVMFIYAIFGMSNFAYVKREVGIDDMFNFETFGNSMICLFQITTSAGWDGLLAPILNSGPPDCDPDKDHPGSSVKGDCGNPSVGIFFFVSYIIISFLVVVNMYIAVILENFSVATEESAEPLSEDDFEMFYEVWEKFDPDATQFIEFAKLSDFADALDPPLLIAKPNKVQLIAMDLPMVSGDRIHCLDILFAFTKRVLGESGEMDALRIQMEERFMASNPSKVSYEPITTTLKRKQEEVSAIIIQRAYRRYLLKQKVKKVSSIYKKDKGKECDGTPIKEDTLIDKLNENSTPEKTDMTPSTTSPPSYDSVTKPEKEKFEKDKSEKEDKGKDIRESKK
- method: Inhibition of human voltage-gated sodium channel 1.2 expressed in HEK293 cells at 1 uM by […]
- Assay type: cell-based
Give just the number in %; leave the unit off.

Here is how some compounds turned out for inhibition.
compound	inhibition, %
CCCCCCC[C@@H](C/C=C/CCC(=O)NCCc1c[nH]c2ccccc12)OC	87.8
CCCCCCCC(C/C=C/CCC(=O)NCCc1ccccc1)OC (racemic)	49.7
CCCCCCC[C@H](C/C=C/CCC(=O)NCCc1ccccc1)OC	58.7
CCCCCCC[C@H](C/C=C/CCC(=O)NCCc1c[nH]c2ccccc12)OC	80.7
CCCCCCC[C@@H](C/C=C/CCC(=O)NCCc1ccccc1)OC	74.4

// sample CCCCCCCC(C/C=C/CCC(=O)NCCc1c[nH]c2ccccc12)OC (racemic) , its inhibition was 88.4
